Origin of measurements: ChEMBL document CHEMBL1156240

# assay-remarks: Cytotoxicity against human multidrug-resistant KB-C2 cells after 48 hrs by MTT assay
# Format: functional, cell-based
# condition-info: KB-C2, 48 h
Label key: class 1 means IC50 under 40 µM; class 0 means IC50 of 40 µM or more.

Here's what some known entries look like.
compound | category
CCNC(=O)CC(=O)O[C@@H]1CC[C@]2(C)[C@H]3C[C@@H](OC(C)=O)[C@@H]4[C@@H]([C@]5(C)CC[C@H](C(C)(C)O)O5)CC[C@@]4(C)[C@]3(C)CC[C@H]2C1(C)C | class 0
CC(=O)O[C@@H]1C[C@@H]2[C@@]3(C)CC[C@@H](OC(=O)CC(=O)OCc4ccccc4)C(C)(C)[C@@H]3CC[C@@]2(C)[C@]2(C)CC[C@H]([C@]3(C)CC[C@H](C(C)(C)O)O3)[C@@H]12 | class 0
CCCCOC(=O)CC(=O)O[C@@H]1CC[C@]2(C)[C@H]3C[C@@H](OC(C)=O)[C@@H]4[C@@H]([C@]5(C)CC[C@H](C(C)(C)O)O5)CC[C@@]4(C)[C@]3(C)CC[C@H]2C1(C)C | class 0
COc1cc2c(c(OC)c1OC)-c1ccc(OC)c(=O)cc1[C@@H](NC(C)=O)CC2 | class 1
CCCOC(=O)CC(=O)O[C@@H]1CC[C@]2(C)[C@H]3C[C@@H](OC(C)=O)[C@@H]4[C@@H]([C@]5(C)CC[C@H](C(C)(C)O)O5)CC[C@@]4(C)[C@]3(C)CC[C@H]2C1(C)C | class 0

**Query** A record lists CCCCCOC(=O)CC(=O)O[C@@H]1CC[C@]2(C)[C@H]3C[C@@H](OC(C)=O)[C@@H]4[C@@H]([C@]5(C)CC[C@H](C(C)(C)O)O5)CC[C@@]4(C)[C@]3(C)CC[C@H]2C1(C)C . Is its IC50 below 40 µM?
**Result** class 0

**Query** Repeat with CCCCCCCOC(=O)CC(=O)O[C@@H]1CC[C@]2(C)[C@H]3C[C@@H](OC(C)=O)[C@@H]4[C@@H]([C@]5(C)CC[C@H](C(C)(C)O)O5)CC[C@@]4(C)[C@]3(C)CC[C@H]2C1(C)C
**Result** class 0

**Query** Repeat with CCCCNC(=O)CC(=O)O[C@@H]1CC[C@]2(C)[C@H]3C[C@@H](OC(C)=O)[C@@H]4[C@@H]([C@]5(C)CC[C@H](C(C)(C)O)O5)CC[C@@]4(C)[C@]3(C)CC[C@H]2C1(C)C
**Result** class 1

**Query** Repeat with CCCCCCCCCNC(=O)CC(=O)O[C@@H]1CC[C@]2(C)[C@H]3C[C@@H](OC(C)=O)[C@@H]4[C@@H]([C@]5(C)CC[C@H](C(C)(C)OC(=O)C(=O)NCCCCCCCCC)O5)CC[C@@]4(C)[C@]3(C)CC[C@H]2C1(C)C
**Result** class 0

**Query** Repeat with CC(=O)O[C@@H]1C[C@@H]2[C@@]3(C)CC[C@@H](OC(=O)CC(=O)NC(C)(C)C)C(C)(C)[C@@H]3CC[C@@]2(C)[C@]2(C)CC[C@H]([C@]3(C)CC[C@H](C(C)(C)OC(=O)C(=O)NC(C)(C)C)O3)[C@@H]12
**Result** class 0

**Query** Repeat with CC(=O)O[C@@H]1C[C@@H]2[C@@]3(C)CC[C@@H](OC(=O)CC(=O)Nc4ccccc4)C(C)(C)[C@@H]3CC[C@@]2(C)[C@]2(C)CC[C@H]([C@]3(C)CC[C@H](C(C)(C)OC(=O)C(=O)Nc4ccccc4)O3)[C@@H]12
**Result** class 0

**Query** Repeat with CC(=O)O[C@@H]1C[C@@H]2[C@@]3(C)CC[C@@H](OC(=O)CC(=O)N4CCOCC4)C(C)(C)[C@@H]3CC[C@@]2(C)[C@]2(C)CC[C@H]([C@]3(C)CC[C@H](C(C)(C)O)O3)[C@@H]12
**Result** class 1

**Query** Repeat with COc1ccc(CCN(C)CCCC(C#N)(c2ccc(OC)c(OC)c2)C(C)C)cc1OC (centres undefined)
**Result** class 0

**Query** Repeat with CC(C)OC(=O)CC(=O)O[C@@H]1CC[C@]2(C)[C@H]3CC[C@@H]4[C@@H]([C@]5(C)CC[C@H](C(C)(C)O)O5)CC[C@@]4(C)[C@]3(C)CC[C@H]2C1(C)C
**Result** class 0

**Query** Repeat with C=CCOC(=O)CC(=O)O[C@@H]1CC[C@]2(C)[C@H]3C[C@@H](OC(C)=O)[C@@H]4[C@@H]([C@]5(C)CC[C@H](C(C)(C)O)O5)CC[C@@]4(C)[C@]3(C)CC[C@H]2C1(C)C
**Result** class 0
